Measured Quantity: IC50 (µM)
Give the value in µM but do not write µM after it.

State its IC50 on thyroid hormone receptor β (TRβ) (Homo sapiens, UniProt P10828): Cc1cc(OCC(=O)O)cc(C)c1Cc1cc(C#Cc2ccc([N+](=O)[O-])cc2)c(O)c(C(C)C)c1 1.09

From: paper PMC2701686
